# test target: T1, Karyopherin beta2 (Kapβ2), full length, wild type (human, UniProt Q92973-2 1-890)
# T1 construct: mature; Expressed as a GST fusion from pGEX-Tev and purified; Also used here for the Kapβ2 added in the GST pull-downs; also called Transportin
# T1 sequence (looked up): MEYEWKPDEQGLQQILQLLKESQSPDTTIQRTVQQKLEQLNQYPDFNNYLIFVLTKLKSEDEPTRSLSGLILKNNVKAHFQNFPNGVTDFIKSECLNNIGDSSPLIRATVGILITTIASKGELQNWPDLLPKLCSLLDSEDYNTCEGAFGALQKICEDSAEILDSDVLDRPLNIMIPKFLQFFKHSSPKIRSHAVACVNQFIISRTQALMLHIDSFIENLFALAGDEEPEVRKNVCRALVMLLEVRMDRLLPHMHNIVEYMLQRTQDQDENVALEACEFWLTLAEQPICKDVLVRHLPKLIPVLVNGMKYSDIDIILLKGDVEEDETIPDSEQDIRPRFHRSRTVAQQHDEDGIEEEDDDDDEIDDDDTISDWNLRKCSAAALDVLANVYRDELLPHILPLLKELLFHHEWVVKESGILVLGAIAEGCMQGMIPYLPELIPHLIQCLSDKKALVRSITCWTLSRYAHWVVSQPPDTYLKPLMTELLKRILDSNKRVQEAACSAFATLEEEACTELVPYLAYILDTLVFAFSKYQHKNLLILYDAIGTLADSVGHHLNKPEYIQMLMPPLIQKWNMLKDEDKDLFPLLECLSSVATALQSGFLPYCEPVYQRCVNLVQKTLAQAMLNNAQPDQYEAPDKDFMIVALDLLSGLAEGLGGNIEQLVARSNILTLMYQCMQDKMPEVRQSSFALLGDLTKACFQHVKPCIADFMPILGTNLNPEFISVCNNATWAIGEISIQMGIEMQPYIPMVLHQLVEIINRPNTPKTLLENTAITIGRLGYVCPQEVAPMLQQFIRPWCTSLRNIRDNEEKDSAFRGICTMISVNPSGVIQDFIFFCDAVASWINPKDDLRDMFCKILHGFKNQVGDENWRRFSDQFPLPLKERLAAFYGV
# measurement protocol: competition ITC; repeat with 20 µM MBP-hnRNP A1-NLS R284A/P288A/Y289A as displacement ligand
property measured: Kd

Respond only with Kd recorded for GPGYSGGSRGYGSGGQGYGNQGSGYGGSFEPYANPTKR (designed binder) [MBP-M9M]
111 pM
